Tested on: TRPC4 beta (transient receptor potential cation channel C4), mouse
Assay: TRPC4 cation channel opening, retest – cell-based, Fluo4 calcium, HEK293 TRPC4beta/mu-opioid, duplicates, 10 µM, confirmation (AID 2426);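 as to activation: percent rise of integrated ratio over buffer wells lacking compound which define 0%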
Details: Fluo4 calcium fluorescence, at 10 µM; hits give high values
Calls of active or inactive are those of the source.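 The calls were made as follows: active = fluorescence ratio normalized to control raised more than 50% in primary screen plus both repeat runs; inactive = the rest.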
attribute measured: activation

>>> test_result("c1ccc(-c2ccccc2OCCOCCN2CCCCC2)cc1")
"inactive"
>>> test_result("COc1ccc(Cl)cc1N/C(N)=N/c1nc(C)cc(C)n1")
"inactive"
>>> test_result("NC(=O)c1nsc(C(=O)N(Cc2ccccc2Cl)C(C(=O)NCC2CCCO2)c2ccc(O)cc2)c1N (stereo unspecified)")
"inactive"
>>> test_result("O=C(O)c1ccc(N2CCN(C(c3ccccc3)c3ccccc3)CC2)c([N+](=O)[O-])c1")
"inactive"
>>> test_result("N#Cc1c(N)sc2c1CCCCCC2")
"inactive"
>>> test_result("C1CCN(c2nc(N3CCCCC3)nc(N3CCNCC3)n2)CC1")
"inactive"

* * *

Test system: TRPC4 beta (transient receptor potential cation channel C4), mouse
Assay: TRPC4 cation channel opening, retest – cell-based, Fluo4 calcium, HEK293 TRPC4beta/mu-opioid, duplicates, 10 µM, confirmation (AID 2426)
Conditions: Fluo4 calcium fluorescence, at 10 µM
Calls of active or inactive are those of the source.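 The calls were made as follows: active = fluorescence ratio normalized to control raised more than 50% in primary screen plus both repeat runs; inactive = the rest.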
Labels: active, inactive

>>> assigned_category("COc1cc(CNC2CCCC2)c(Br)cc1OCc1ccccc1")
"inactive"
>>> assigned_category("Cc1c(C(=O)NCCc2ccccc2)oc2ccccc12")
"inactive"
>>> assigned_category("CCc1c(C(=O)N2CCCN(C)CC2)csc1C")
"inactive"
>>> assigned_category("Cc1ccc(-c2[nH]c3ccccc3c2SCCN)cc1")
"inactive"
>>> assigned_category("CN(C)CCCN(C(=O)c1ccc(S(=O)(=O)N2CCc3ccccc3C2)cc1)c1nc2ccc(F)cc2s1")
"inactive"
>>> assigned_category("O/N=C/c1cn(-c2ccccc2)nc1-c1ccc2c(c1)OCCO2")
"inactive"
>>> assigned_category("Cc1ccc(CSc2nc(-c3ccccc3)c(C#N)c(=O)[nH]2)cc1")
"inactive"
>>> assigned_category("CCN1CCN(c2ncnc3sc(C)c(-c4ccccc4)c23)CC1")
"active"
>>> assigned_category("c1ccc(Nc2nc(N3CCCCC3)nc(N3CCNCC3)n2)cc1")
"inactive"
>>> assigned_category("C1CCN(c2nc(N3CCCC3)nc(N3CCNCC3)n2)C1")
"inactive"
>>> assigned_category("CCN(CC)CCCN(C(=O)c1cccs1)c1nc(-c2ccc(OC)cc2)cs1")
"inactive"
>>> assigned_category("Cc1ccc2[nH]c3c(N4CCc5ccccc5C4)ncnc3c2c1")
"inactive"
>>> assigned_category("CCOc1cc(N(CC)CC)ccc1/C=C(/C#N)c1nc2ccccc2[nH]1")
"inactive"
>>> assigned_category("CN(C)C(CNC(=O)c1cccc(S(=O)(=O)N(C)C)c1)c1ccccc1 (stereo not given)")
"active"
>>> assigned_category("CN(C)CCCNc1c2c(nc3cc(-c4cccc(F)c4)nn13)CCC2")
"active"
>>> assigned_category("O=C(c1ccc(Cl)c(Cl)c1)N(Cc1ccco1)c1ccc(O)cc1")
"inactive"
>>> assigned_category("CCOC(=O)c1c(NC(=O)/C=C/C(=O)O)sc(C)c1-c1ccc(C(C)(C)C)cc1")
"inactive"
>>> assigned_category("O=[N+]([O-])c1ccc(/C=N/Nc2nc(N3CCCCC3)nc(N3CCCCC3)n2)o1")
"inactive"
>>> assigned_category("Cc1cccc(Cn2c(N3CCN(c4ccccc4)CC3)nc3c2c(=O)n(C)c(=O)n3C)c1")
"inactive"
>>> assigned_category("O=C(O)C1C2C=CC(C2)C1C(=O)NC1CCN(Cc2ccccc2)CC1 (stereo not given)")
"active"
>>> assigned_category("OC(CNCCc1ccc(C(F)(F)F)cc1)COc1ccc2ccccc2c1 (stereo not given)")
"inactive"
>>> assigned_category("CCOC(=O)C1(CC2CC2)CCN(Cc2cn[nH]c2-c2cccc(F)c2)CC1")
"inactive"
>>> assigned_category("O=C(COC(=O)c1ccccn1)Nc1nc(-c2ccccc2)cs1")
"inactive"
>>> assigned_category("Nc1cc(C(F)(F)F)ccc1Nc1ccccc1")
"inactive"
>>> assigned_category("COc1cc2ccccc2cc1C(=O)NCC(c1cccs1)N(C)C (stereo not given)")
"active"
>>> assigned_category("CCCCN(CC)CCCNC(=O)c1csc2c1CCCCC2")
"active"
>>> assigned_category("CN(C)C(CNC(=O)NC1CCCCC1)c1cccnc1 (stereo not given)")
"active"
>>> assigned_category("CCN1CCN(c2ccc(S(=O)(=O)N3CCCCC3)cc2NC(=O)c2cccc(C(F)(F)F)c2)CC1")
"inactive"
>>> assigned_category("CCn1c(CN2CCN(Cc3ccc(C)cc3)C(CCO)C2)nc2ccccc21 (stereo not given)")
"active"
>>> assigned_category("Cc1noc(C)c1CCC(=O)NC1CCCN(Cc2ccc(CC(C)C)cc2)C1 (stereo not given)")
"active"
>>> assigned_category("CN1CCCC(OC(=O)c2cc(Br)ccc2Cl)C1 (stereo not given)")
"active"
>>> assigned_category("CC(C)CN(C(=O)COC(=O)COc1ccc2ccccc2c1)c1c(N)n(Cc2ccccc2)c(=O)[nH]c1=O")
"inactive"
>>> assigned_category("C#Cc1ccc(CN2CCCC(C(=O)Nc3ccccc3Oc3cccnc3)C2)cc1 (stereo not given)")
"inactive"
>>> assigned_category("COCCn1c(SCc2ccc(F)cc2)nc2ccccc2c1=O")
"inactive"
>>> assigned_category("COc1ccc(/C=C(\\C#N)C(=O)N2CCOCC2)cc1Br")
"inactive"
>>> assigned_category("CCOC(=O)C(CCCCCOc1ccc([N+](=O)[O-])cc1)C(=O)OCC")
"inactive"
>>> assigned_category("O=C(O)c1cc(NN=C2c3ccccc3-c3ccccc32)ccc1Cl")
"inactive"
>>> assigned_category("COc1ccccc1CNCc1ccc(OC)c2ccccc12")
"inactive"
>>> assigned_category("O=C1S/C(=C\\c2ccc(N3CCOCC3)o2)C(=O)N1Cc1c(F)cccc1Cl")
"inactive"
>>> assigned_category("CN(C)CCCn1c(=O)n(CCc2ccccc2)c(=O)c2c3c(sc21)CCCCC3")
"inactive"
>>> assigned_category("O=C(NC1CCN(Cc2ccccc2)CC1)C12CC3CC(CC(C3)C1)C2")
"active"
>>> assigned_category("CCCc1nc2ccccc2n1Cc1ccccc1OC")
"inactive"
>>> assigned_category("CCCCOc1ccc(CSCCN=C(N)N)cc1")
"inactive"
>>> assigned_category("Cc1ccn2c(CNCCCn3cccn3)c(C(=O)N3CCCCCC3)nc2c1")
"inactive"
>>> assigned_category("COc1ccccc1N1CCc2c(C)nc3c(OC)cccc3c21")
"inactive"

* * *

Target: Short transient receptor potential channel 4 (Mus musculus) (UniProt Q9QUQ5)
Sequence (Q9QUQ5 whole entry, looked up): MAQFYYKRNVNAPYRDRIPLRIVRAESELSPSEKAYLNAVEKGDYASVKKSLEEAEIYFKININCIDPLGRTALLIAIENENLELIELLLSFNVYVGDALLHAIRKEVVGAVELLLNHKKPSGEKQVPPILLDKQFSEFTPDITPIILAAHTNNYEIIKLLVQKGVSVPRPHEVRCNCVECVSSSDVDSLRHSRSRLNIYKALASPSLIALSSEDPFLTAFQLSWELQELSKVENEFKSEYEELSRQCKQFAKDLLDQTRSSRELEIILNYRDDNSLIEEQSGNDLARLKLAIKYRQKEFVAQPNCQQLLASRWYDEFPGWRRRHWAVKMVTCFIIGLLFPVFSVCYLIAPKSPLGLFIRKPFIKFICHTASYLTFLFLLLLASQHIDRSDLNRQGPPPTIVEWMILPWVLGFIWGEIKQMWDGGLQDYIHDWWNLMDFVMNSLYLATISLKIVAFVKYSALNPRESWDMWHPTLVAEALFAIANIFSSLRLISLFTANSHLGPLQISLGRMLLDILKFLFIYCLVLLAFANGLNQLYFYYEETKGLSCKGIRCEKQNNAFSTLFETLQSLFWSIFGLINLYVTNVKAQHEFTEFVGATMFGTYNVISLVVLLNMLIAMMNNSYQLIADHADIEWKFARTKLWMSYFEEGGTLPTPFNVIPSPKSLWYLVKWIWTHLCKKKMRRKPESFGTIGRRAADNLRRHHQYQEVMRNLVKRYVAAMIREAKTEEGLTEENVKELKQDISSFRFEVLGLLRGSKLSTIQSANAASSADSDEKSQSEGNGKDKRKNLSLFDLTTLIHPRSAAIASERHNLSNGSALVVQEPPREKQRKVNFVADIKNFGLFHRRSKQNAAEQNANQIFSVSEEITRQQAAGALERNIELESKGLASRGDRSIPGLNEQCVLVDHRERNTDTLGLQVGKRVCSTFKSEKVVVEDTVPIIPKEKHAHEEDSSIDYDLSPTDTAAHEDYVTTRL
Test: blockers of DAMGO-evoked TRPC4 calcium flux – cell-based, second round, Fluo4, HEK293 TRPC4beta/mu-opioid, 1 µM, confirmation (AID 2637)
Settings: at 1 µM
Activity calls are given as the source filed them.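 The calls were made as follows: active = calcium signal ratio cut to more than 3 SD under the fully stimulated control mean yet still positive, in both repeats and the primary screen; inactive = the rest.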
Labels: true (1) = active, false (0) = inactive

>>> assigned_category("COc1ccc(C(CNC(=O)c2ccc3c(c2)OCCO3)N(C)C)cc1 (stereo not drawn)")
"false (0)"
>>> assigned_category("Cc1nc2ccccc2n1CC(O)COc1ccccc1Cl (stereo not drawn)")
"true (1)"
>>> assigned_category("CCCSc1nc(C)cc(C)c1S(=O)(=O)c1ccccc1C")
"false (0)"
>>> assigned_category("O=C(NC1CCN(Cc2ccccc2)CC1)c1cccc(S(=O)(=O)Nc2cc(C(F)(F)F)ccc2Cl)c1")
"false (0)"
>>> assigned_category("CCNC(=S)N/N=C/c1cc(C)n(-c2ccc(Cl)cc2)c1C")
"false (0)"
>>> assigned_category("CCOc1cc(/C=C2\\CN(CC)C/C(=C\\c3ccc(O)c(OCC)c3)C2=O)ccc1O")
"false (0)"
>>> assigned_category("C=CCn1cnc2scc(-c3ccc(CC)cc3)c2c1=O")
"false (0)"
>>> assigned_category("O=C(NC1CC1)C1=C[C@H](c2csc3ccccc23)C[C@H](OCc2ccc(CO)cc2)O1")
"false (0)"
>>> assigned_category("OC1(c2ccc(Br)cc2)CN(c2ccccc2)C2=[N+]1CCS2 (stereo not drawn)")
"false (0)"
>>> assigned_category("CCOc1nc(C)cc(C)c1S(=O)(=O)c1cccc(C)c1")
"false (0)"
>>> assigned_category("CCN(CC)c1ccc(/C=N/NC(=O)CNC(=O)c2ccccn2)cc1")
"false (0)"
>>> assigned_category("CN(C)c1ccc(NC(=O)C2C3C=CC(C3)C2C(=O)O)cc1 (stereo not drawn)")
"false (0)"
>>> assigned_category("Cc1noc(C)c1CCC(=O)NC1CCCN(Cc2ccc(CC(C)C)cc2)C1 (stereo not drawn)")
"false (0)"
>>> assigned_category("Cc1cc(-c2cn3ccccc3n2)c(C)n1-c1ccccc1")
"true (1)"
>>> assigned_category("CCOC(=O)CCSc1nc(C)cc(C(F)(F)F)c1C#N")
"false (0)"
>>> assigned_category("CC1CCCCC1NC(=O)c1cc2ccccc2o1 (stereo not drawn)")
"false (0)"
>>> assigned_category("CCCCCCn1c(N2CCN(c3ccccc3)CC2)nc2c1c(=O)n(C)c(=O)n2C")
"false (0)"
>>> assigned_category("CCOc1ncccc1C(=O)NCC(c1ccccc1)N(C)C (stereo not drawn)")
"false (0)"
>>> assigned_category("COc1cccc(C2=NN(C(=O)c3ccco3)C(c3ccco3)C2)c1 (stereo not drawn)")
"false (0)"
>>> assigned_category("O=S(=O)(NCC1NCCc2ccccc21)c1ccccc1 (stereo not drawn)")
"false (0)"
>>> assigned_category("CCOc1cccc(CNCCO)c1OCc1ccc(Cl)cc1")
"false (0)"
>>> assigned_category("CSc1ccc2nnc(-c3cccc(F)c3)n2n1")
"false (0)"
>>> assigned_category("Cc1sc2ncnc(SCC(=O)N(C)C3CCS(=O)(=O)C3)c2c1C (stereo not drawn)")
"false (0)"
